The listing below reports IC50 for molecules tested on UniProt P12822.
endpoint-label: IC50 (nM)

Use these answered entries as a reference point.
{"molecule": "CC(=O)SC(CC(=O)N1CCC[C@H]1C(=O)O)C(=O)c1cccc(C(F)(F)F)c1 (stereo partly shown)", "units-label": "nM", "IC50": 1070}
{"molecule": "CC(=O)S[C@@H](C(=O)c1cccc(F)c1)[C@H](C)C(=O)N1CCC[C@H]1C(=O)O", "units-label": "nM", "IC50": 16000}
{"molecule": "CC(=O)SC(CC(=O)N1CCC[C@H]1C(=O)O)C(=O)c1ccc(Br)cc1 (stereo partly shown)", "units-label": "nM", "IC50": 131}
{"molecule": "O=C(SC(CC(=O)N1CCC[C@H]1C(=O)O)C(=O)c1ccc(Br)cc1)c1ccccc1 (stereo partly shown)", "units-label": "nM", "IC50": 115}
{"molecule": "CC(=O)SC(C(=O)c1ccccc1)C(C)C(=O)N1CCC[C@H]1C(=O)O (stereo partly shown)", "units-label": "nM", "IC50": 147}
{"molecule": "CC(=O)SC(CC(=O)N1CCC[C@H]1C(=O)O)C(=O)c1ccccc1 (stereo partly shown)", "units-label": "nM", "IC50": 455}

I. CC(=O)SC(CC(=O)N1CCC[C@H]1C(=O)O)C(=O)c1ccc(C(C)(C)C)cc1 (stereo partly shown)
II. CC(=O)SC(CC(=O)c1ccccc1)C(=O)N1CCC[C@H]1C(=O)O (stereo partly shown)
III. CC(=O)SC(CC(=O)N1CCC[C@H]1C(=O)O)C(=O)c1ccc(F)cc1 (stereo partly shown)
IV. O=C(O)CSC(CC(=O)c1ccccc1)C(=O)N1CCC[C@H]1C(=O)O (stereo partly shown)
Write the entries in order, lowest recorded IC50 first. Output spec: a listing of the labels in the requested order.
I, III, II, IV

* * *

target: angiotensin converting enzyme (ACE) (Oryctolagus cuniculus); construct: The ACE was extracted from rabbit lung acetane powder (Pel-Freez, Biol. Inc.); tissue Pel-Freez, Biol. Inc; host or cells: rabbit lung acetone powder, crude extract (40,000 g supernatant); assay: Spectrophotometric assay for angiotensin converting enzyme inhibitors; assay type: biochemical; details: crude ACE extract from rabbit lung; substrate benzoyl-glycyl-histidyl-leucine; 30 minutes at 37° C.; absorbance at 228 nm
Sequence (P12822 34-1310): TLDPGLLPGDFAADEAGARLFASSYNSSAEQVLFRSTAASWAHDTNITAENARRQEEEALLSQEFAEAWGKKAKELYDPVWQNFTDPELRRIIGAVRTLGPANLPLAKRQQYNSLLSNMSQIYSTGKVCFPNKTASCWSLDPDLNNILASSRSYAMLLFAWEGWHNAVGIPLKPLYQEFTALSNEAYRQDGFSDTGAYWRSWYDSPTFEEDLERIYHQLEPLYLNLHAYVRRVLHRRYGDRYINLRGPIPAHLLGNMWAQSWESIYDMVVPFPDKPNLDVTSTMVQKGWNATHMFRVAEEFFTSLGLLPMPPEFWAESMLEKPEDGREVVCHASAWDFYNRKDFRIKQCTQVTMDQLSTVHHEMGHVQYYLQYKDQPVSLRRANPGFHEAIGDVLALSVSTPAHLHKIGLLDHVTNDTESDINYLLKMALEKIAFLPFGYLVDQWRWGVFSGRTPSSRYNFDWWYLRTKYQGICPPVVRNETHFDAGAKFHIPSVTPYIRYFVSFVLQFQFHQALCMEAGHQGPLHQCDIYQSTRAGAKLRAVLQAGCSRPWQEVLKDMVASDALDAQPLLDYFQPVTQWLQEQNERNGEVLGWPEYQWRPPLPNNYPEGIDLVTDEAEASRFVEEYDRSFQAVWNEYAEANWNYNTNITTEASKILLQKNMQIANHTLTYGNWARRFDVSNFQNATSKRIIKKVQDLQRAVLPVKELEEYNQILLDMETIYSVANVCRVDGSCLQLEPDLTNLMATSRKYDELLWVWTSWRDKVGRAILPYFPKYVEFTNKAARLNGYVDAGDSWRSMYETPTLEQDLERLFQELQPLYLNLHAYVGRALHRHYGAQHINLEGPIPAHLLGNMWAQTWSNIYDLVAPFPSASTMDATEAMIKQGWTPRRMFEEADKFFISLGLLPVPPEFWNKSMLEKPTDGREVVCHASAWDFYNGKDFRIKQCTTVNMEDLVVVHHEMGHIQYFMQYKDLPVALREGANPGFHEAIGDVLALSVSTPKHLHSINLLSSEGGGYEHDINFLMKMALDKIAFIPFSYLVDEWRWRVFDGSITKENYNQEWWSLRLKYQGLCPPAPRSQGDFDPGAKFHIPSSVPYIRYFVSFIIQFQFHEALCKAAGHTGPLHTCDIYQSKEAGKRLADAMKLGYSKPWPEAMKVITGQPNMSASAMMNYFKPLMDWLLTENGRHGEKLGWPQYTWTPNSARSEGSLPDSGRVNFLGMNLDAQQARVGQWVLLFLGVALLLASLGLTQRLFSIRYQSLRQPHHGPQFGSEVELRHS
pIC50: −log10 of the molar value.
endpoint-label: pIC50

{"compound": "CC(=O)S[C@H](C(=O)c1cccc(F)c1)[C@@H](C)C(=O)N1CCC[C@H]1C(=O)O", "endpoint-label": "pIC50", "assay-result": 6.63}
{"compound": "CC(=O)S[C@@H](C(=O)c1cccc(F)c1)[C@@H](C)C(=O)N1CCC[C@H]1C(=O)O", "endpoint-label": "pIC50", "assay-result": 7.43}

P. CC(=O)SC(CC(=O)N1CCC[C@H]1C(=O)O)C(=O)c1ccc(-c2ccccc2)cc1 (stereo partly shown)
Q. COc1ccc(C(=O)C(CC(=O)N2CCC[C@H]2C(=O)O)SC(C)=O)cc1F (stereo partly shown)
Hi there, can you help? I need to know whether P or Q has lower measured pIC50. Refer to your chosen entry by its label in the reply.
Q
